# Test system: rat RANKL mRNA
# Method description: Antisense inhibition of rat RANKL mRNA levels in UMR-106 cells, quantitative real-time PCR (Table 3)
# Type: cell-based
# Parameters: concentration or dose not given beside the values
# Condition description: averages from three experiments
Strand notation (5' to 3'): a small letter for the sugar, then the base; units joined by * are phosphorothioate-linked, units joined directly phosphodiester-linked; [ ] holds rarer units or linkages, { } end groups; capitals alone tell only the bases. e = 2'-O-(2-methoxyethyl) (MOE); [5mC] = 5-methylcytosine; d = 2'-deoxy (DNA)
Endpoint: % INHIB (inhibition of rat RANKL mRNA levels) (%)
Report the figure in % without appending any unit label.

Query: What % INHIB (inhibition of rat RANKL mRNA levels) value was documented for this substance, 286597 (antisense eG*eA*eT*eA*eT*dT*d[5mC]*dT*dG*dT*dT*dA*dG*dG*dA*eT*e[5mC]*e[5mC]*eA*eT) [compound 286597] ?
Response: 57

Query: What % INHIB (inhibition of rat RANKL mRNA levels) value was documented for this substance, 286647 (antisense eG*eA*e[5mC]*e[5mC]*eT*dG*dT*dA*d[5mC]*dA*dG*dG*dG*dT*d[5mC]*eG*eA*eG*eA*eG) [compound 286647] ?
Response: 53
